ASSAY_OVERVIEW: protein stability index of a GFP-peptide fusion (yeast GPS) (PSI 1-4); higher = more stable; sorted into four equal gates, so the index is relative within each strain
MEASUREMENT_CONDITIONS: san1∆
Assign TRUE whenever protein stability index does not fall below 2; assign FALSE whenever it does.

LSKVAALSGNEGDASPF [RPB2]; TRUE
GRSDSNTEEKAELQSNL [YGL100W/SEH1]; FALSE
AGIPIGLKRSQLDEFKN [SWP82]; TRUE
DSSSNTYRSRAQQVPPY [SIN4]; TRUE
KSSVPGSAELRNSYPAS [RPN3]; TRUE
SSETDDDHSQVINPQQL [DSN1]; TRUE

Request: Is protein stability index at least 2? Consider SCHGHFGHLKLALPVFH [RPO31]
Response: FALSE

Request: Is protein stability index at least 2? Consider VICSVTGPIEPKARQEL [RRP46]
Response: TRUE

Request: Is protein stability index at least 2? Consider EVFSRPEWMILTCLPVP [RPO21]
Response: FALSE

Request: Is protein stability index at least 2? Consider GTFTADYSKPNLPPHYA [SSN2]
Response: TRUE

Request: Is protein stability index at least 2? Consider IRKLVKNGTIVKKAVTV [RPL19A]
Response: TRUE

Request: Is protein stability index at least 2? Consider ILTGTPLQNNLPELWAL [SNF2]
Response: TRUE

Request: Is protein stability index at least 2? Consider QNNLPPNFFLTLISENW [BRR2]
Response: TRUE

Request: Is protein stability index at least 2? Consider SYTAFSRLTLLLRALKT [PRP8]
Response: FALSE
